Biological target: CDK12–cyclin K and DDB1 (Homo sapiens, UniProt Q16531+Q9NYV4, K965R)
Construct: His6–CDK12 (a.a. 713–1,052); full-length or beta-propeller B domain deletion (ΔBPB: a.a. 396–705 deleted) constructs of His6–DDB1ΔBPB, StrepII–Avi–DDB1, or His6–Spy–DDB1; made in house; host or cells: Trichoplusia ni High Five insect cells (baculovirus)
Sequence (Q9NYV4 713-1052 K965R): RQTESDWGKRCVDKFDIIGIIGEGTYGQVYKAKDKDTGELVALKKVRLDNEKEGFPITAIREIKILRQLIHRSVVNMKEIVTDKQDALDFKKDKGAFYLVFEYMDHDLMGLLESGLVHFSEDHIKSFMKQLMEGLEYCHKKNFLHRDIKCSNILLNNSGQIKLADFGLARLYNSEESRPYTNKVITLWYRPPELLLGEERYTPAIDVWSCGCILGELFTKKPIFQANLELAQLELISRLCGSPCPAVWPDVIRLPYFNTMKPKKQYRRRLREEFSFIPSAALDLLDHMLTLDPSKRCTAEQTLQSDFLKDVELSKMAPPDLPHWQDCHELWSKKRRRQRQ
Sequence (O75909 1-267 partner): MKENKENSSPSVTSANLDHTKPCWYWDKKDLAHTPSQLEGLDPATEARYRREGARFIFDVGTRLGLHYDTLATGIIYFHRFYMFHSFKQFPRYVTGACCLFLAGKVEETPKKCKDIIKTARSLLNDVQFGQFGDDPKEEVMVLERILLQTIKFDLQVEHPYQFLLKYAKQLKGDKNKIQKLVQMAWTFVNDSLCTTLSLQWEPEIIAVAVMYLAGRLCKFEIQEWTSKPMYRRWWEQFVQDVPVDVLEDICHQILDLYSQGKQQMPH
Sequence (Q16531 whole entry): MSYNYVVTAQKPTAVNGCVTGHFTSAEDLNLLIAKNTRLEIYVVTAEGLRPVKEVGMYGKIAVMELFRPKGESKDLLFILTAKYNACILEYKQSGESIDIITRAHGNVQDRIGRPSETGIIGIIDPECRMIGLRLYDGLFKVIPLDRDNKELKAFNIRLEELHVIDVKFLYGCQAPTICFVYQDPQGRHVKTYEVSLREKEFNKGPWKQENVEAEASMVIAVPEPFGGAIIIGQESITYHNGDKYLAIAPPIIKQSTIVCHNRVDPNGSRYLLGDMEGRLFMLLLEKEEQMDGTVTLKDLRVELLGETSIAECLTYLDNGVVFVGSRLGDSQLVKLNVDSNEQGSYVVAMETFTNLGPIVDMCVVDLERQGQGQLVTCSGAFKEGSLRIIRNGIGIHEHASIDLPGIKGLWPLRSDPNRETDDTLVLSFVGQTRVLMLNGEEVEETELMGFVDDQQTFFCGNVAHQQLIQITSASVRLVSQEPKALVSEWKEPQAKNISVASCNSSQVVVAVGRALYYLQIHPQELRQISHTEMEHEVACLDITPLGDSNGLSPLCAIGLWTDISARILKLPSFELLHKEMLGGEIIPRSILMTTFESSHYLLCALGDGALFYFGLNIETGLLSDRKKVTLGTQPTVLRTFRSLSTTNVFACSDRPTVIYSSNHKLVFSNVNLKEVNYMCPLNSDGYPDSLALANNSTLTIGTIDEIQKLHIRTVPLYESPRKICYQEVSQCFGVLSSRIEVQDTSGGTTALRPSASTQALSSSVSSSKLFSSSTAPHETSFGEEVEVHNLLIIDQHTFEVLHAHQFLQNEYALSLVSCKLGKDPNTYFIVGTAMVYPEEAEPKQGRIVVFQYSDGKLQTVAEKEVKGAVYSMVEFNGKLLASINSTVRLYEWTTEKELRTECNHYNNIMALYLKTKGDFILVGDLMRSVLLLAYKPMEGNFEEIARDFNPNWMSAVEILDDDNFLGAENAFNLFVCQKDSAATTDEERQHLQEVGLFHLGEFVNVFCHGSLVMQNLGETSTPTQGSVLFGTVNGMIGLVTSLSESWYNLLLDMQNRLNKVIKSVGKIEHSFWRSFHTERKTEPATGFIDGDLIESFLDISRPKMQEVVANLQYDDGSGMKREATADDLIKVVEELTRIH
Test: TR-FRET ternary complex formation assay (compound titration)
Assay type: binding
Settings: in vitro TR-FRET
METRIC: DDB1–CDK12 complex formation, result in words

{"COMPOUND": "Cn1cc(-n2cnc3c(NCc4ccc(-c5ccccn5)cc4)nc(N4CCOCC4)nc32)cn1 [DS21]", "REPORTED VALUE": "poorer glues"}
{"COMPOUND": "CC[C@H](CO)Nc1nc(NCc2ccc(-c3ccccn3)cc2)c2ncn(-c3cnn(C)c3)c2n1 [DS20]", "REPORTED VALUE": "poorer glues"}
